- system: NOS1, P29475
- Sequence (P29475 9-101): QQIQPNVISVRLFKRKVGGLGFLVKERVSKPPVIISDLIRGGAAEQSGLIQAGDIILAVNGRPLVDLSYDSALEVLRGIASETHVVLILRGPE
- procedureDetails: holdup assay
- Parameters: key: below the threshold = too weak to quantify, mostly under pKd 3.1 to 4
- condition: plain residues with an end cap or a label only (N-terminal biotin on a linker: ado-ado)
quantityKind: pKd

> print(dat)
                         binder  quantitykind       endpointresult
1   PDGQCTVTEV [RNF146, Q9NTX7]           pKd                 3.74
2  PRISRSQSEL [CCDC134, Q9H6E4]           pKd  below the threshold
3   KKMPSIESDV [GRIN2A, Q12879]           pKd  below the threshold
4   QHKTQLQTLI [BPIFA2, Q96DR5]           pKd                  4.2
5    EVEEFPETSV [TRPV3, Q8NET8]           pKd                 4.12
6   LRSPRTPSEV [OR10G3, Q8NGC4]           pKd                 3.76

Can you look up the measured pKd of QKNRKAQEDL [CES3, Q6UWW8] for me?
below the threshold

Bench note: what pKd did QSLNRMEYIV [JAG1, P78504] show?
3.54

Look up pKd for this binder: YLEPVLSSEL [ATP2A2, P16615;P16615-3]
below the threshold

Given RKPKPSSSCC [RAB9A, P51151] , state its recorded pKd.
below the threshold

Item VRNLPESEEL [MYOZ3, Q8TDC0] has what recorded pKd?
below the threshold

Query: pKd; subject: IPLDGETEEL [MYOZ1, Q9NP98]
below the threshold

Fill in the blank: the reported pKd of PLSPEQPTKL [TRIM50, Q86XT4] is ____.
below the threshold

// pKd lookup, key: SAKVRTVTSV [RASL11B, Q9BPW5]
3.9

Given the binder RRRESYSTTV [EVI5, O60447] , what is its reported pKd?
below the threshold

Quick check: pKd of KKAPTNEFYA [SDC4, P31431] ?
below the threshold

Consider the binder shown here: SKENVQETQI [LRRC4B, Q9NT99] What is its recorded pKd?
3.85

Any idea what its pKd is? The binder is VDSTVKVWTC [TRAF7, Q6Q0C0]
below the threshold

If you can, please state the reported pKd value of TASPAKETSF [SLC2A7, Q6PXP3] .
below the threshold

Value lookup for pKd; key = LPHGHSTTRV [NLGN4X, Q8N0W4]
3.76
